Please respond with reported IC50 for every item in the list.
Target: HLA DRB1*04:01 (Homo sapiens, UniProt P01903+P01911, A100K/A169T/F76Y/I96L/K127E/L162R/M171V/N62H/P40V/Q125Y/R42H/S133A/S149N/S66Y/V115G/V209L/W38E)
Experiment: biochemical
Type: binding
Details: binder threshold 1,000 nM, read-out: In vitro (IC50 nM) DRB1*04:01
Give bare numbers, in nM.

Solved cases (4 shown):
Query string: Give the measured IC50 of CSCC[C@H](NC(=O)[C@H](CO)NC(=O)[C@H](Cc1ccccc1)NC(=O)[C@H](Cc1c[nH]cn1)NC(=O)[C@H](CCCCN)NC(=O)[C@H](CCCNC(=N)N)NC(=O)[C@H](CC(C)C)NC(=O)[C@H](Cc1ccc(O)cc1)NC(=O)[C@H](C)NC(=O)[C@H](Cc1ccc(O)cc1)NC(=O)[C@H](Cc1ccccc1)NC(=O)[C@H](CCC(=O)O)NC(=O)[C@H](CC(N)=O)NC(=O)[C@@H](NC(=O)[C@@H](N)Cc1ccccc1)C(C)C)C(=O)O .
Result string: 8370

Query string: GET /values?readout=IC50&item= CC(C)C[C@H](NC(=O)[C@H](CCCNC(=N)N)NC(=O)[C@H](Cc1ccc(O)cc1)NC(=O)[C@H](Cc1ccccc1)NC(=O)[C@H](CCCNC(=N)N)NC(=O)[C@H](Cc1c[nH]cn1)NC(=O)[C@H](CO)NC(=O)[C@H](CC(C)C)NC(=O)[C@H](CO)NC(=O)[C@H](CS)NC(=O)[C@H](CS)NC(=O)[C@@H](NC(=O)[C@@H](NC(=O)[C@H](Cc1c[nH]cn1)NC(=O)[C@@H](N)CCCCN)[C@@H](C)O)[C@@H](C)O)C(=O)O
Result string: 613

Query string: If you can, please state the reported IC50 value of CC[C@H](C)[C@H](NC(=O)[C@H](CCSC)NC(=O)[C@H](CCSC)NC(=O)[C@H](CO)NC(=O)[C@H](Cc1ccccc1)NC(=O)[C@H](Cc1c[nH]cn1)NC(=O)[C@H](CCCCN)NC(=O)[C@H](CCCNC(=N)N)NC(=O)[C@H](CC(C)C)NC(=O)[C@H](Cc1ccc(O)cc1)NC(=O)[C@H](C)NC(=O)[C@@H](N)Cc1ccc(O)cc1)C(=O)N[C@@H](CC(C)C)C(=O)N[C@@H](CO)C(=O)N[C@@H](CC(=O)O)C(=O)O [Peptide 150] .
Result string: 102

Query string: So what's the measured IC50 for this one? CC(C)C[C@H](NC(=O)[C@H](CCCNC(=N)N)NC(=O)[C@H](Cc1ccc(O)cc1)NC(=O)[C@H](Cc1ccccc1)NC(=O)[C@@H](N)CCCNC(=N)N)C(=O)N[C@@H](C)C(=O)N[C@@H](CC(N)=O)C(=O)N[C@@H](CCC(=O)O)C(=O)N[C@@H](CS)C(=O)N[C@@H](C)C(=O)N[C@@H](CCC(N)=O)C(=O)N[C@H](C(=O)N[C@@H](CC(C)C)C(=O)N[C@@H](CO)C(=O)N[C@@H](CCC(=O)O)C(=O)O)C(C)C
Result string: 27

Could you now consider this next compound?
Query string: What does the record list as IC50 for CC[C@H](C)[C@H](NC(=O)[C@@H](NC(=O)[C@@H]1CCCN1C(=O)[C@@H](NC(=O)[C@@H](NC(=O)[C@H](CC(N)=O)NC(=O)[C@H](CCCNC(=N)N)NC(=O)[C@H](CCCCN)NC(=O)[C@@H](NC(=O)[C@H](Cc1ccc(O)cc1)NC(=O)[C@H](C)NC(=O)[C@H](Cc1ccccc1)NC(=O)[C@H](CC(C)C)NC(=O)[C@H](C)N)[C@@H](C)O)C(C)C)[C@@H](C)CC)[C@@H](C)O)C(=O)N[C@H](C(=O)O)[C@@H](C)O ?
Result string: 3660
